- Test system: native bombesin/GRP receptor of AR42J rat pancreas cells (rat) (UniProt P52500)
- Sequence (P52500 whole entry): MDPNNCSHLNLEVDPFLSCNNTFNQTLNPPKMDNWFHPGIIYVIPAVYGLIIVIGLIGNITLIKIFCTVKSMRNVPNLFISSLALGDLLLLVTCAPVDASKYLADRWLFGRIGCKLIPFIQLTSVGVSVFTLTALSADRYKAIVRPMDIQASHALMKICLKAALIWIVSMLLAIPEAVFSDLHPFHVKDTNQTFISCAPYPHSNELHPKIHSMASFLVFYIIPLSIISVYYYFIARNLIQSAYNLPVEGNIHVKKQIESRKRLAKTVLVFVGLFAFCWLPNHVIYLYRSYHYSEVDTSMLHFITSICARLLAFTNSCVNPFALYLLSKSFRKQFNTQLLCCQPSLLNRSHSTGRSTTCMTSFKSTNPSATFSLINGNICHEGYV
- Experiment notes: radioligand displacement, AR42J rat pancreas cell membranes, tracer [125I-Tyr4]bombesin
Numbered stars: 1 amine (or outer) side, 2 acyl side, 3 side chain; on linkers, the order of the positions; unused ones are H or OH. Square brackets hold non-standard residues; d marks the D form. Pipz(1-CH2CO,4-CH2CH2NH) = O=C(CN1CCN(CCN[*:1])CC1)[*:2]; Suc = O=C(CCC(=O)[*:2])[*:1]; Nle = CCCC[C@H](N)C(=O)O; AEEA = NCCOCCOCC(=O)O; GABA = NCCCC(=O)O; βAla = NCCC(=O)O
Measure name: Ki

Which Ki value belongs to Camptothecin-[rvGly][Suc][AEEA][AEEA][AEEA][AEEA][Pipz(1-CH2CO,4-CH2CH2NH)][GABA]NQWAV[βAla]HL[Nle]-NH2 [Camptothecin-rvGly-Suc-(Doc)4-Aepa-Gaba-Asn-Gln-Trp-Ala-Val-β-Ala-His-Leu-Nle-NH2] ?
7.65 nM
